Data origin: patent US20260234115A1

Reported Organ Mean Total Flux Heart values follow for various compounds
# Test system: mouse organs
# Protocol Text: In vivo activity screening in mice: organ mean total flux (p/s) of luciferase activity after injection of F2 LNP pools (Table 6, FIG. 7A-7C)
# Experimental Setup: Mouse 2, dose 1.0 mg/kg, luciferase mRNA
Marks after values point to notes of the source that are not given here.

Compound	Organ Mean Total Flux Heart
CCCCC/C=C\CCOC(=O)CCCCCC(=O)OCC(COC(=O)CCCCC)(COC(=O)CCCCCC(=O)OCC/C=C\CCCCC)COC(=O)CCC(CCCCCC)OC(=O)NCCN1CCCC1 (centres unmarked) [Compound 60]	2.9 p/s (×10^6)
CCCCC/C=C\CCOC(=O)CCCCCC(=O)OCC(COC(=O)CCCCCCOC(=O)C(CCCC)CCCCCC)(COC(=O)CCCCCCOC(=O)C(CCCC)CCCCCC)COC(=O)CCC(CCCCCC)OC(=O)NCCN1CCCC1 (centres unmarked) [Compound 17]	13.0 p/s (×10^6)
CCCCC/C=C\CCOC(=O)CCCCC(=O)OCC(COC(=O)CCCCC(=O)OCC/C=C\CCCCC)(COC(=O)CCC(CCCC)CCOC(=O)NCCN1CCCC1)COC(=O)CC12CC3CC(CC(C3)C1)C2 (centres unmarked) [Compound 61]	1.9 p/s (×10^6)
CCCCC/C=C\CCOC(=O)CCCCC(=O)OCC(COC(=O)CCCCC(=O)OCC/C=C\CCCCC)(COC(=O)CCC(CCCCCC)OC(=O)NCCN1CCCC1)COC(=O)CC12CC3CC(CC(C3)C1)C2 (centres unmarked) [Compound 14]	5.9 p/s (×10^6)
CCCCC/C=C\C/C=C\CCCCCCCCC(CCCCCCCC/C=C\C/C=C\CCCCC)OC(=O)CCCN(C)C [MC3, reference compound]	17.0 p/s (×10^6)
